# Test system: Amb a 1-specific T cell lines (TCL)
# protocol.details: T cell epitope mapping of Amb a 1.3: proliferation (3H-thymidine uptake) of TCL stimulated with synthetic peptides
# Format: cell-based, human
# protocol.conditions: TCL from 48 ragweed pollen-allergic patients; peptide 5 μg/ml; stimulation index > 5
result.type: % (positive patients SI > 5) (%)

| sequence.input | result.number |
| --- | --- |
| SAGVLSCRPGAPC (Amb a 1 fragment) [Peptide 121] | 4.2 |
| QIWIDHCSLSKS (Amb a 1 fragment) [Peptide 61] | 50.0 |
| IHDVKVLPGGMI (Amb a 1 fragment) [Peptide 49] | 4.2 |
| VTLGSTHVTISN (Amb a 1 fragment) [Peptide 67] | 4.2 |
| VQDKGMLATVAF (Amb a 1 fragment) [Peptide 77] | 8.3 |
| GKWGDVYTVTSN (Amb a 1 fragment) [Peptide 20] | 14.6 |
| NLNQELVVNSDK (Amb a 1 fragment) [Peptide 35] | 2.1 |
| HVTISNCKFTQQ (Amb a 1 fragment) [Peptide 69] | 8.3 |
| LRFAAAQNRPLW (Amb a 1 fragment) [Peptide 28] | 22.9 |
| VKVEIINGGLTL (Amb a 1 fragment) [Peptide 41] | 2.1 |
| VNNNYDRWGTYA (Amb a 1 fragment) [Peptide 88] | 8.3 |
| QNRPLWIIFKND (Amb a 1 fragment) [Peptide 30] | 18.8 |
| EAYNIIDKCWRG (Amb a 1 fragment) [Peptide 8] | 2.1 |
| ESMAWNWRSDKD (Amb a 1 fragment) [Peptide 104] | 2.1 |
| AWNWRSDKDLLE (Amb a 1 fragment) [Peptide 105] | 6.3 |
| NINIHDVKVLPG (Amb a 1 fragment) [Peptide 48] | 18.8 |
| TYGGKWGDVYTV (Amb a 1 fragment) [Peptide 19] | 0.0 |
| NGGLTLMNVKNI (Amb a 1 fragment) [Peptide 43] | 2.1 |
| LATVAFNMFTDN (Amb a 1 fragment) [Peptide 79] | 4.2 |
| TGTGAAESMAWN (Amb a 1 fragment) [Peptide 102] | 12.5 |
| NRQALADCAQGF (Amb a 1 fragment) [Peptide 14] | 0.0 |
| PDDQIKKNVLAR (Amb a 1 fragment) [Peptide 98] | 16.7 |
| KSNDGPPILRQA (Amb a 1 fragment) [Peptide 53] | 0.0 |
| SKSFDGLVDVTL (Amb a 1 fragment) [Peptide 64] | 2.1 |
| EGTLRFAAAQNR (Amb a 1 fragment) [Peptide 27] | 10.4 |
| KNDMVINLNQEL (Amb a 1 fragment) [Peptide 33] | 27.1 |
| NGAIFVTSGSDP (Amb a 1 fragment) [Peptide 109] | 18.8 |
| RWGTYAIGGSSA (Amb a 1 fragment) [Peptide 90] | 6.3 |
| GSTHVTISNCKF (Amb a 1 fragment) [Peptide 68] | 33.3 |
| NYDRWGTYAIGG (Amb a 1 fragment) [Peptide 89] | 12.5 |
| QGFAKGTYGGKW (Amb a 1 fragment) [Peptide 17] | 2.1 |
| TSNLDDDVANPK (Amb a 1 fragment) [Peptide 23] | 2.1 |
| SAGMIPAEPGEA (Amb a 1 fragment) [Peptide 115] | 35.4 |
| DVANPKEGTLRF (Amb a 1 fragment) [Peptide 25] | 0.0 |
| DCAQGFAKGTYG (Amb a 1 fragment) [Peptide 16] | 0.0 |
| TDNVDQRMPRCR (Amb a 1 fragment) [Peptide 82] | 4.2 |
| DKDLLENGAIFV (Amb a 1 fragment) [Peptide 107] | 56.3 |
| LARTGTGAAESM (Amb a 1 fragment) [Peptide 101] | 14.6 |
| RSLQACEAYNII (Amb a 1 fragment) [Peptide 6] | 0.0 |
| AAAQNRPLWIIF (Amb a 1 fragment) [Peptide 29] | 6.3 |
| VLTPVQSAGMIP (Amb a 1 fragment) [Peptide 113] | 2.1 |
| DGPPILRQASDG (Amb a 1 fragment) [Peptide 54] | 4.2 |
| VVNSDKTIDGRG (Amb a 1 fragment) [Peptide 37] | 18.8 |
| SDKTIDGRGVKV (Amb a 1 fragment) [Peptide 38] | 22.9 |
